Test system: pigweed (Amaranthus retroflexus)
Procedure text: Test A preemergence
Type: in vivo
Measurement conditions: Preemergence, 500 g ai/ha; 0 is no effect, 100 is complete control
Pigweed plant response rating (0 to 100 scale) overview

Consider the worked cases shown below.
| Molecule | Result |
| --- | --- |
| Cc1ccc(C2CNC(=O)C2C(=O)Nc2ccccc2F)cc1F (racemic) [Compound 368] | 0 |
| CN(C)c1cccc(C2CNC(=O)C2C(=O)Nc2ccccc2F)c1 (centres unmarked) [Compound 360] | 0 |
| Cc1ccc(C2CNC(=O)C2C(=O)Nc2ccc(F)c(F)c2F)cc1F (racemic) [Compound 371] | 20 |
| CN1CC(c2cccc(OC(F)(F)C(F)F)c2)C(C(=O)Nc2ccc(F)cc2F)C1=O (centres unmarked) [Compound 393] | 70 |

// moving on: another record for Pigweed plant response rating (0 to 100 scale)
// recorded Pigweed plant response rating (0 to 100 scale) for CCCOc1cccc(C2CNC(=O)C2C(=O)Nc2cccc(F)c2F)c1 (racemic) [Compound 380] : 30

---

Below, each entry is listed with its recorded plant injury at 250 g/ha.
System: corn (Zea mays)
Procedure text: Test G Post-Emergence Protocol
Format: in vivo
Measurement conditions: Zea mays, post-emergence, 312 h, 250 g ai/ha, evaluated after 13 days, 100=total damage to plant, 0=no damage to plant, read-out: Corn damage rating
Description: Seeds of corn (Zea mays), giant foxtail (Setaria faberi), barnyardgrass (Echinochloa crus-galli), ivy-leaved morning glory (Ipomoea hederacea), redroot pigweed (Amaranthus retroflexus) and velvetleaf (Abutilon theophrasti) were sown in standard soil in pots. […]
Don't forget the unit after the value.

Before answering, review these 3 worked examples.
| Compound | plant injury at 250 g/ha |
| --- | --- |
| Cc1c(F)ccc(NC(=O)[C@@H]2C(=O)N(C)C[C@H]2c2ccc(C(F)(F)F)cc2)c1Cl (racemic) [Compound 1651] | 0% |
| CN1C[C@H](c2ccc(C(F)(F)F)cc2)[C@@H](C(=O)Nc2ccc3ncccc3n2)C1=O (racemic) [Compound 1833] | 0% |
| CN1C[C@H](c2ccc(C(F)(F)F)cc2)[C@@H](C(=O)Nc2cnccc2F)C1=O (racemic) [Compound 1744] | 10% |

Note to self: plant injury at 250 g/ha of COc1cc(Cl)cc(C2CN(C)C(=O)C2C(=O)Nc2cccc(F)c2F)c1 (stereo not drawn) [Compound 1690] with corn (Zea mays) was 80%

// assay corn (Zea mays), entry CN1C[C@H](c2ccc(C#N)c(C(F)(F)F)c2)[C@@H](C(=O)Nc2ccccc2S(C)(=O)=O)C1=O (racemic) [Compound 1796] , plant injury at 250 g/ha value = 0%

Reported corn (Zea mays) plant injury at 250 g/ha for item Cc1c(F)cccc1NC(=O)[C@@H]1C(=O)N(C)C[C@H]1c1cccc(C(C)(C)O)c1 (racemic) [Compound 1819] was 20%

Entry COC(=O)c1cc([C@H]2CN(C)C(=O)[C@@H]2C(=O)Nc2cccc(F)c2F)ccc1F (racemic) [Compound 1678] , tested on corn (Zea mays), has a reported plant injury at 250 g/ha of 0%

Given the compound Cc1cc([C@H]2CN(C)C(=O)[C@@H]2C(=O)Nc2ccc(F)c(F)c2F)cnn1 (racemic) [Compound 1663] and test system corn (Zea mays), the measured plant injury at 250 g/ha is 0%

Bench note, corn (Zea mays): entry CN1C[C@H](c2cccc(C(F)(F)F)c2)[C@@H](C(=O)Nc2ccc(O)cc2F)C1=O (racemic) [Compound 1785] , its plant injury at 250 g/ha = 0%

---

System: Galium (catchweed bedstraw, Galium aparine)
Procedure text: Test A postemergence
Assay type: in vivo
Measurement conditions: Galium, post-emergence, 240 h, Postemergence, 31 g ai/ha; visual injury after approx. 10 d; 0 to 100 scale, 0 no effect, 100 complete control; read-out: Plant response rating, Galium
Here, each record is paired with measured pest or weed control at 31 g/ha data.
# unit: % | format: bare number

Reference set, count: 3
| Query smiles | Quantitative readout |
| --- | --- |
| COc1cc([C@H]2CN(C)C(=O)[C@@H]2C(=O)Nc2cccc(F)c2F)ccc1C(F)(F)F | 30 |
| CN1CC[C@@H](c2cccc(C(F)(F)F)c2)[C@H](C(=O)Nc2ccccc2F)C1=O | 0 |
| CSc1ccccc1NC(=O)[C@H]1C(=O)N(C)C[C@@H]1c1cc(C)c(C)c(C)c1 | 0 |

Switching to the query record.
response.value for `CN1C[C@H](c2cc(C(F)F)cs2)[C@@H](C(=O)Nc2ccc(F)c(F)c2F)C1=O` (field: pest or weed control at 31 g/ha) = 60

---

Test system: Galium (catchweed bedstraw, Galium aparine)
Procedure text: Test A postemergence
Assay type: in vivo
Measurement conditions: Galium, post-emergence, 240 h, 500 g ai/ha, postemergence; 0 to 100 scale, 0 is no effect, 100 is complete control; read-out: Galium plant response rating
The entries below come with measured pest or weed control at 500 g/ha values attached.
Enter your answer as a number in %; do not include the unit.

| Query smiles | pest or weed control at 500 g/ha (%) |
| --- | --- |
| CN1C[C@H](c2ccc3c(c2)OC(F)(F)O3)[C@@H](C(=O)Nc2ccc(F)c(F)c2F)C1=O | 60 |
| CN1C[C@H](c2csc(C(F)F)c2)[C@@H](C(=O)Nc2ccccc2F)C1=O | 50 |
| Cc1c(F)cccc1NC(=O)[C@H]1C(=O)N(C)C[C@@H]1c1ccc(OC(F)F)cc1 | 60 |

Switching to the query record.
Looking up `CN1C[C@H](c2ccc(C#N)cc2)[C@@H](C(=O)Nc2ccccc2F)C1=O` , I see its pest or weed control at 500 g/ha listed as 40

---

Reported Plant response rating, Rice is given for each of the following compounds.
System: rice (Oryra sativa)
Procedure text: Test B flooded paddy test
Format: in vivo
Measurement conditions: Flood, 250 g ai/ha; 0 to 100 scale where 0 is no effect and 100 is complete control; 13 to 15 d

Plant response rating, Rice value, target or system rice (Oryra sativa), for CN1CC(c2c(F)cccc2F)C(C(=O)Nc2cccc(F)c2F)C1=O (centres unmarked) : 0

---

Tested on: Kochia (Kochia scoparia)
Procedure text: Test A postemergence
Type: in vivo
Measurement conditions: 125 g ai/ha, postemergence; visual injury rating on 0 to 100 scale (0 no effect, 100 complete control), approx. 10 d
Reported metric: Kochia plant response rating
// return a plain number; no unit text

| Molecule | Measurement target | Reported metric | Quantitative readout |
| --- | --- | --- | --- |
| O=C1NCC(c2ccnc(C(F)(F)F)c2)C1C(=O)Nc1cccc(F)c1F (racemic) | Kochia (Kochia scoparia) | Kochia plant response rating | 30 |
| O=C1NCC(c2ccc(C(F)(F)F)c(F)c2)C1C(=O)Nc1ccc(F)cc1F (racemic) | Kochia (Kochia scoparia) | Kochia plant response rating | 20 |
| O=C(Nc1cccc(F)c1F)C1C(=O)N(c2ccccc2)CC1c1cccc(C(F)(F)F)c1 (stereo not drawn) | Kochia (Kochia scoparia) | Kochia plant response rating | 0 |
| Cc1ccc(C2CNC(=O)C2C(=O)Nc2ccccc2S(C)(=O)=O)c(F)c1 (racemic) | Kochia (Kochia scoparia) | Kochia plant response rating | 30 |
| CN1CC(c2ccccc2)C(C(=S)Nc2ccccc2F)C1=O (stereo not drawn) | Kochia (Kochia scoparia) | Kochia plant response rating | 0 |

Here is the next item to consider.
For O=C1NCC(c2cc(F)cc(Cl)c2)C1C(=O)Nc1cccc(F)c1F (stereo not drawn) the molecule record lists Kochia plant response rating as 40

---

System: ryegrass, Italian (Italian ryegrass, Lolium multiflorum)
Procedure text: Test A postemergence
Format: in vivo
Measurement conditions: Lolium multiflorum, post-emergence, 240 h, 500 g ai/ha, postemergence; 0 to 100 scale, 0 is no effect, 100 is complete control; read-out: Ryegrass, Italian plant response rating
Collected pest or weed control at 500 g/ha values appear next to each entry.
Remember to put the unit after the number in your answer.

| Molecule | pest or weed control at 500 g/ha |
| --- | --- |
| CSc1ccccc1NC(=O)[C@H]1C(=O)N(C)C[C@@H]1c1ccc(C(F)(F)F)nc1 | 30% |
| CCc1ccc([C@H]2CNC(=O)[C@@H]2C(=O)Nc2cccc(F)c2C)cc1 | 40% |
| CC(C)Oc1ccc([C@H]2CNC(=O)[C@@H]2C(=O)Nc2ccccc2F)cc1 | 0% |
| O=C1NC[C@H](c2ccc(C(F)(F)F)cc2)C1C(=O)Nc1ccccc1CO (some centres unmarked) | 0% |
| CCc1ccc([C@H]2CNC(=O)[C@@H]2C(=O)Nc2ccccc2SC)cc1 | 0% |

Data point: `O=C1NC[C@H](c2nccs2)[C@H]1C(=O)Nc1cccc(F)c1F` ; pest or weed control at 500 g/ha = 0%

Entry `CSc1ccccc1NC(=O)[C@H]1C(=O)N(C)C[C@@H]1c1cccc(C)c1` ; pest or weed control at 500 g/ha = 60%

`Cc1cc([C@H]2CN(C)C(=O)[C@@H]2C(=O)Nc2cccc(F)c2F)ccc1Br` yielded pest or weed control at 500 g/ha of 60%

response.value for CN1CC(c2cccc(/C=C/Cl)c2)C(C(=O)Nc2ccccc2F)C1=O (centres unmarked) (field: pest or weed control at 500 g/ha) = 0%

Recorded pest or weed control at 500 g/ha (molecule `CN1C[C@H](c2csc(C(F)F)c2)[C@@H](C(=O)Nc2cccc(F)c2F)C1=O` ): 60%
